Just for reference, patent US20080227763A1 is where these values come from.

EXPERIMENT SUMMARY: Solubility of nomegestrol acetate in solvent mixtures
Type: physicochemical
CONDITION: ethanol/water/propyleneglycol solvent mixture, aqueous with cosolvent or surfactant or cyclodextrin, System III (Ethanol 95° 45%/Demineralized water 55%), 2% propyleneglycol; read-out: Solubilities
EXPERIMENTAL READOUT: solubility (µg/mL)

> print(dat)
                                   compound   unit  recorded.measurement
1  CC(=O)O[C@]1(C(C)=O)CC[C@H]2[C@@H]3C=C(C)C4=CC(=O)CC[C@@H]4[C@H]3CC[C@@]21C [nomegestrol acetate]  µg/mL                  5100

----------
EXPERIMENT SUMMARY: Solubility of nomegestrol acetate in solvent mixtures
Assay type: physicochemical
CONDITION: ethanol/water/propyleneglycol ternary mixture, aqueous with cosolvent or surfactant or cyclodextrin, System III (Ethanol 95° 45%/Demineralized water 55%), 12% propyleneglycol; read-out: Solubilities
EXPERIMENTAL READOUT: solubility

> print(dat)
                                   compound  experimental.readout  recorded.measurement
1  CC(=O)O[C@]1(C(C)=O)CC[C@H]2[C@@H]3C=C(C)C4=CC(=O)CC[C@@H]4[C@H]3CC[C@@]21C [nomegestrol acetate]            solubility            7700 µg/mL

----------
EXPERIMENT SUMMARY: Solubility of nomegestrol acetate in solvent mixtures
Assay type: physicochemical
CONDITION: ethanol/water/propyleneglycol ternary mixture, aqueous with cosolvent or surfactant or cyclodextrin, System II (Ethanol 95° 40%/Demineralized water 60%), 6% propyleneglycol; read-out: Solubilities
EXPERIMENTAL READOUT: solubility (µg/mL)

> print(dat)
                                   compound   unit  recorded.measurement
1  CC(=O)O[C@]1(C(C)=O)CC[C@H]2[C@@H]3C=C(C)C4=CC(=O)CC[C@@H]4[C@H]3CC[C@@]21C [nomegestrol acetate]  µg/mL                  3000

----------
EXPERIMENT SUMMARY: Clinical example No. 1: plasma nomegestrol acetate after gel applied daily to both breasts
Format: in vivo, women
CONDITION: female, human, plasma, topical, 4 mg; 72 hours after the last application; read-out: plasma level
Protocol: In these examples, clinical trials were carried out on women, with the gel containing 0.11% of nomegestrol acetate, whose formulation is given in Table 1 of example I. Twenty-four volunteers, women in good health and in the period of ovarian activity, with average age of 23.5 years, were treated on 15 consecutive days with 4 mg of nomegestrol acetate in a gel applied every day to both breasts. […]
EXPERIMENTAL READOUT: concentration at 72 h (ng/mL)

> print(dat)
                                   molecule  recorded.measurement
1  CC(=O)O[C@]1(C(C)=O)CC[C@H]2[C@@H]3C=C(C)C4=CC(=O)CC[C@@H]4[C@H]3CC[C@@]21C [nomegestrol acetate]                  0.19

----------
EXPERIMENT SUMMARY: Solubility of nomegestrol acetate in solvent mixtures
Assay type: physicochemical
CONDITION: ethanol/water/propyleneglycol ternary mixture, aqueous with cosolvent or surfactant or cyclodextrin, System III (Ethanol 95° 45%/Demineralized water 55%), 0% propyleneglycol; read-out: Solubilities
EXPERIMENTAL READOUT: solubility (µg/mL)

> print(dat)
                                   compound  recorded.measurement
1  CC(=O)O[C@]1(C(C)=O)CC[C@H]2[C@@H]3C=C(C)C4=CC(=O)CC[C@@H]4[C@H]3CC[C@@]21C [nomegestrol acetate]                  5100
